Data provenance: patent US20230159469A1

# reported IC50; entries follow
target: human recombinant ENPP1 (Homo sapiens); assay: ENPP1 enzyme assay with cGAMP substrate (AMP-Glo luminescence); conditions: human recombinant ENPP1 3 ng/reaction, cGAMP 5 μM, 37° C. 90 minutes, read-out: Enzymatic activity (ENPP1 IC50)
Where a name gives a salt, the structure may show the parent alone.

Guide cases for IC50, answers given:
INSERT INTO results (molecule, outcome_measure, data_value) VALUES
  ('COc1cc2c(Cc3cccc(N)c3)nn(C)c(=O)c2cc1OC [Example 157, hydrochloride]', 'IC50', '> 10 µM'),
  ('CC(C)(C)OC(=O)NCc1cccc(-c2n[nH]c(=O)c3ccccc23)c1', 'IC50', '> 10 µM'),
  ('COc1ccc2c(=O)[nH]nc(-c3ccc(CN)cc3)c2c1 [Compound No. 43, hydrochloride]', 'IC50', '< 1 µM');

Next:
IN: Need IC50, item Cn1nc(-c2cccc(NS(=O)(=O)NC(=O)OC(C)(C)C)c2)c2ccccc2c1=O
OUT: > 10 µM

* * *

// reported IC50 for each item listed
Target: human recombinant ENPP1 (Homo sapiens)
Construct: purchased R & D systems
Assay: ENPP1 enzyme assay with cGAMP substrate (AMP-Glo luminescence)
Assay type: biochemical
Conditions: human recombinant ENPP1 3 ng/reaction, cGAMP 5 μM, 37° C. 90 minutes, read-out: Enzymatic activity (ENPP1 IC50)
Experimental: ENPP1 hydrolyzes nucleotides or nucleotide derivatives to produce nucleoside -5′-monophosphate and pyrophosphate. in addition, ENPP1 hydrolyzes 2′,3′-cGAMP to produce 5′-adenosine monophosphate (AMP) and 5′-guanosine monophosphate (GMP). AMP produced from the reaction is measured using the AMP-Glo® kit (Promega). The AMP-Glo® kit contains two reagents. […] The second reagent converts ADP to ATP which is used to generate luminescence in the luciferase reaction. […]
Structures can show the parent of a compound that is named as a salt.

Known results for molecules:
INSERT INTO assay_data (molecule, data_value) VALUES
  ('COc1cc2c(Cc3cccc(Br)c3)n[nH]c(=O)c2cc1OC [Example 193]', '> 10 µM'),
  ('C[C@@H](N)c1ccc(-c2n[nH]c(=O)c3ccccc23)cc1 [Compound No. 51, hydrochloride]', '< 1 µM'),
  ('NS(=O)(=O)Nc1ccc(Cc2n[nH]c(=O)c3ccccc23)cc1 [Example 180, hydrochloride]', '< 1 µM'),
  ('NS(=O)(=O)N1CCc2ccc(-c3n[nH]c(=O)c4ccccc34)cc2C1 [Compound No. 121, hydrochloride]', '< 1 µM');

IN: Fill in: IC50 of CCn1nc(-c2ccc(CNC(=O)OC(C)(C)C)cc2)c2ccccc2c1=O [Compound No. 10] is ___
OUT: > 10 µM

IN: Now try NS(=O)(=O)NCc1cccc(-c2n[nH]c(=O)c3ccccc23)c1 [Compound No. 95, hydrochloride] .
OUT: < 1 µM

IN: Then what about the molecule O=c1[nH]nc(-c2ccc(CNS(=O)(=O)C3CC3)cc2)c2ccccc12 [Example 196] ?
OUT: > 10 µM

* * *

biological target: human recombinant ENPP1 (Homo sapiens, UniProt P22413); assay: ENPP1 enzyme assay with cGAMP substrate (AMP-Glo luminescence); details: human recombinant ENPP1 3 ng/reaction, cGAMP 5 μM, 37° C. 90 minutes, read-out: Enzymatic activity (ENPP1 IC50)
Counter-ions that a name gives are not always drawn.
Catalogue of compounds with associated IC50

Known IC50 results, listed for orientation:
INSERT INTO assay_data (compound, data_value) VALUES
  ('O=c1[nH]nc(-c2ccc3c(c2)CCNC3)c2ccccc12 [Compound No. 55, hydrochloride]', '< 1 µM'),
  ('COc1cc2c(Cc3cccc(NC(=O)OC(C)(C)C)c3)nn(C)c(=O)c2cc1OC', '> 10 µM'),
  ('CC(C)(C)OC(=O)N1CCc2cc(-c3n[nH]c(=O)c4ccccc34)ccc2C1', '> 10 µM');

IN: Endpoint output: IC50 of O=c1[nH]nc(-c2ccc(CNS(=O)(=O)c3cccs3)cc2)c2ccccc12 . Value?
OUT: > 10 µM

IN: Record: CC(C)(C)OC(=O)NS(=O)(=O)NCc1ccc(-c2nn(Cc3ccc(F)cc3)c(=O)c3ccccc23)cc1
OUT: > 10 µM

IN: Likewise for COc1cc2c(-c3cccc(CNS(N)(=O)=O)c3)nn(C)c(=O)c2cc1OC ?
OUT: 1 to 10 µM

IN: Another compound to check: NCc1ccc(-c2n[nH]c(=O)c3ccccc23)cc1C(F)(F)F [Compound No. 53, hydrochloride]
OUT: < 1 µM

IN: What about this compound? CC(C)(C)OC(=O)NCC1CCN(c2n[nH]c(=O)c3ccccc23)CC1
OUT: > 10 µM

* * *

target: human recombinant ENPP1 (Homo sapiens); assay: ENPP1 enzyme assay with cGAMP substrate (AMP-Glo luminescence); details: human recombinant ENPP1 3 ng/reaction, cGAMP 5 μM, 37° C. 90 minutes, read-out: Enzymatic activity (ENPP1 IC50)
pIC50: −log10 of the molar value. Structures can show the parent of a compound that is named as a salt.
OUTCOME MEASURE: pIC50

IN: Would you kindly share the measured pIC50 for Cn1nc(-c2ccc(CN)cc2)c2ccccc2c1=O [Compound No. 37, hydrochloride] ?
OUT: > 6.00

IN: Moving on to O=c1[nH]nc(Cc2ccccc2)c2ccccc12 [Compound No. 143, 4-benzylphthalazin-1(2H)-one]
OUT: < 5.00

IN: Quick one: COc1cc2c(Cc3ccc(N(C)S(=O)(=O)NC(=O)OC(C)(C)C)cc3)n[nH]c(=O)c2cc1OC [Example 174]
OUT: < 5.00

IN: For CC(C)(C)OC(=O)NS(=O)(=O)NCc1ccc(-c2nn(Cc3ccccc3)c(=O)c3ccccc23)cc1 [Compound No. 70] then?
OUT: < 5.00

IN: Moving on to COc1ccc2c(=O)n(C)nc(-c3ccc(CN)cc3)c2c1 [Compound No. 44]
OUT: 5.00 to 6.00

IN: Also check CC(C)(C)OC(=O)NS(=O)(=O)Nc1ccc(Cc2n[nH]c(=O)c3ccccc23)cc1 [Example 169]
OUT: 5.00 to 6.00

IN: And what about the compound COc1cc2c(-c3ccc4c(c3)CCN(S(N)(=O)=O)C4)n[nH]c(=O)c2cc1OC [Compound No. 130, hydrochloride] ?
OUT: 5.00 to 6.00

* * *

Entries and their pIC50
target: human recombinant ENPP1 (Homo sapiens, UniProt P22413); construct: purchased R & D systems; test: ENPP1 enzyme assay with cGAMP substrate (AMP-Glo luminescence); format: biochemical; settings: human recombinant ENPP1 3 ng/reaction, cGAMP 5 μM, 37° C. 90 minutes, read-out: Enzymatic activity (ENPP1 IC50)
pIC50: −log10 of the molar value.

IN: Look at this compound and give its reported pIC50. CC(C)(C)OC(=O)NS(=O)(=O)Nc1cccc(-c2n[nH]c(=O)c3ccccc23)c1
OUT: < 5.00

* * *

Target: human recombinant ENPP1 (Homo sapiens, UniProt P22413)
Assay: ENPP1 enzyme assay with cGAMP substrate (AMP-Glo luminescence)
Settings: human recombinant ENPP1 3 ng/reaction, cGAMP 5 μM, 37° C. 90 minutes, read-out: Enzymatic activity (ENPP1 IC50)
Protocol: ENPP1 hydrolyzes nucleotides or nucleotide derivatives to produce nucleoside -5′-monophosphate and pyrophosphate. in addition, ENPP1 hydrolyzes 2′,3′-cGAMP to produce 5′-adenosine monophosphate (AMP) and 5′-guanosine monophosphate (GMP). AMP produced from the reaction is measured using the AMP-Glo® kit (Promega). The AMP-Glo® kit contains two reagents. […] The second reagent converts ADP to ATP which is used to generate luminescence in the luciferase reaction. […]
Counter-ions that a name gives are not always drawn.
OUTCOME MEASURE: IC50

IN: Consider the molecule shown here: NCC1CCN(c2n[nH]c(=O)c3ccccc23)CC1 [Compound No. 134, hydrochloride] What is its recorded IC50?
OUT: 1 to 10 µM

IN: Would you kindly repeat that for NS(=O)(=O)NCc1cccc(-c2nn(Cc3ccccc3)c(=O)c3ccccc23)c1 [Compound No. 90, hydrochloride] ?
OUT: > 10 µM

IN: Similarly, COc1cc2c(Cc3ccccc3)n[nH]c(=O)c2cc1OC [Compound No. 144] ?
OUT: > 10 µM

IN: Try this molecule next: COc1cc2c(-c3ccc4c(c3)CN(S(N)(=O)=O)CC4)n[nH]c(=O)c2cc1OC [Compound No. 122]
OUT: < 1 µM

IN: Next molecule up: COc1cc2c(Cc3ccc(NC(=O)OC(C)(C)C)cc3)n[nH]c(=O)c2cc1OC [Compound No. 149]
OUT: > 10 µM

* * *

Target: human recombinant ENPP1 (Homo sapiens, UniProt P22413)
Construct: purchased R & D systems
Sequence (P22413 1-925): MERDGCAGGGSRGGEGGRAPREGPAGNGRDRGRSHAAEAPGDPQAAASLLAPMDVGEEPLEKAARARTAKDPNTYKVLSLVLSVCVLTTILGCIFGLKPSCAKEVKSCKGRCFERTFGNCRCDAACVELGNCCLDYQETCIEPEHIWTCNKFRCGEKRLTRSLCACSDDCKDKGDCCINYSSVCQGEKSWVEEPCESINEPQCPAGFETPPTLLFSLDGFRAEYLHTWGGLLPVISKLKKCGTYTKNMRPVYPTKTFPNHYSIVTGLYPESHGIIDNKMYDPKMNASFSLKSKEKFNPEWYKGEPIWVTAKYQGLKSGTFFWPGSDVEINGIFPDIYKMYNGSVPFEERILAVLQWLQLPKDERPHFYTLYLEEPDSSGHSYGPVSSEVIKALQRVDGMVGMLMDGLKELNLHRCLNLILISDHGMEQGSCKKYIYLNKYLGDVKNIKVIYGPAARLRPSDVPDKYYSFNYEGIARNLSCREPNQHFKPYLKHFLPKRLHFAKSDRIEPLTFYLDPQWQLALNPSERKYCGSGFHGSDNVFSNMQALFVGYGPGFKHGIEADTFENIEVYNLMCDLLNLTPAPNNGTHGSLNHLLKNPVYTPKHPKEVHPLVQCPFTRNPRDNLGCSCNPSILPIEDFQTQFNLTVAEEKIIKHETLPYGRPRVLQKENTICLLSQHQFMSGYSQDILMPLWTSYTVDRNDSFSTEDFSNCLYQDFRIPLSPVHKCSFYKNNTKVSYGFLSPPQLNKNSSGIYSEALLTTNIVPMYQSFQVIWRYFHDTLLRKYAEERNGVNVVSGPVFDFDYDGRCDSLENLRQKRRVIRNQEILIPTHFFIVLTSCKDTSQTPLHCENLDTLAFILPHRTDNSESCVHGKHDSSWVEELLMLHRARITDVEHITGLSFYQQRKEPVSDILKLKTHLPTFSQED
Experiment: ENPP1 enzyme assay with cGAMP substrate (AMP-Glo luminescence)
Type: biochemical
Details: human recombinant ENPP1 3 ng/reaction, cGAMP 5 μM, 37° C. 90 minutes, read-out: Enzymatic activity (ENPP1 IC50)
Procedure: ENPP1 hydrolyzes nucleotides or nucleotide derivatives to produce nucleoside -5′-monophosphate and pyrophosphate. in addition, ENPP1 hydrolyzes 2′,3′-cGAMP to produce 5′-adenosine monophosphate (AMP) and 5′-guanosine monophosphate (GMP). AMP produced from the reaction is measured using the AMP-Glo® kit (Promega). The AMP-Glo® kit contains two reagents. […] The second reagent converts ADP to ATP which is used to generate luminescence in the luciferase reaction. […]
pIC50: −log10 of the molar value. Where a name gives a salt, the structure may show the parent alone.
OUTCOME MEASURE: pIC50

# example entries with known answers
INSERT INTO results (compound, outcome_measure, data_value) VALUES
  ('NS(=O)(=O)Nc1ccc(-c2nn(Cc3ccccc3)c(=O)c3ccccc23)cc1 [Compound No. 93]', 'pIC50', '< 5.00'),
  ('COc1ccc2c(=O)[nH]nc(-c3ccc(CNS(=O)(=O)NC(=O)OC(C)(C)C)cc3)c2c1 [Compound No. 72]', 'pIC50', '< 5.00');

IN: Quick one: pIC50 for CN(Cc1ccc(-c2n[nH]c(=O)c3ccccc23)cc1)S(N)(=O)=O [Compound No. 127] ?
OUT: > 6.00

IN: Okay, and NS(=O)(=O)Nc1ccc(Cc2n[nH]c(=O)c3ccccc23)c(C(F)(F)F)c1 [Example 191, hydrochloride] ?
OUT: > 6.00

IN: Same thing, different compound: COc1cc2c(Cc3ccc(N)cc3)nn(C)c(=O)c2cc1OC [Example 161, hydrochloride]
OUT: < 5.00
